# credit: patent US20040147432A1

- TARGET: T1, human melanin concentrating hormone type 2 receptor (MCH-2R) (human, UniProt Q969V1 1-340)
- T1 construct: also called MCH-R2
- T1 sequence (Q969V1 whole entry, form in doubt): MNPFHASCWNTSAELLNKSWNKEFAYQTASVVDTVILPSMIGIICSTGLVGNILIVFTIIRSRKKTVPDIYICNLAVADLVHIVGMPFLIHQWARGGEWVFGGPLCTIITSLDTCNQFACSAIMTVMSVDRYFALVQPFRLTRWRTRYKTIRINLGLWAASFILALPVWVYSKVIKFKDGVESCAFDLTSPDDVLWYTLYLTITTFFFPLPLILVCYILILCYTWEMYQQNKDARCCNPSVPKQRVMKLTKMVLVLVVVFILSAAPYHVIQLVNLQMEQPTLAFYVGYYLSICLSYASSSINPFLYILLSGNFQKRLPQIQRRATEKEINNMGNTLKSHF
- TEST NAME: SPA competition with [125I]-human MCH (Phe13, Tyr19) on receptor membranes
Bridges are numbered along the chain shown (N, C = ends). [ ]: non-standard residue; d: D form.

BINDER	IC50 (nM)
RCMLXRVYRPC (D-Nle^10, also called D-Nle^10) [SEQ. ID. NO. 15]	2.3
Ac-RCML[dF]RVYRPC-NH2 (disulfide 2-11 (inferred), also called D-Phe^10) [SEQ. ID. NO. 17]	47
Ac-RCALGRVYRPC-NH2 (disulfide 2-11; SMILES CC(=O)N[C@@H](CCCNC(=N)N)C(=O)N[C@H]1CSSC[C@@H](C(N)=O)NC(=O)[C@@H]2CCCN2C(=O)[C@H](CCCNC(=N)N)NC(=O)[C@H](Cc2ccc(O)cc2)NC(=O)[C@H](C(C)C)NC(=O)[C@H](CCCNC(=N)N)NC(=O)CNC(=O)[C@H](CC(C)C)NC(=O)[C@H](C)NC1=O, also called Ala^8) [SEQ. ID. NO. 4]	18
RCMLGXVYRPC (Harg^11 (homoarginine), also called Harg^11) [SEQ. ID. NO. 24]	0.4
